Hi there, I'd appreciate the recorded %Inh for every entry that follows.
- Tested on: PCTK2;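 also: KINOMEscan kinase panel screen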
- Construct: gene CDK17
- settings: concentration: 1 μM,replicates: in singlicate; n = 1
Only the number, expressed in %, is required.

Q) Would you mind telling me what %Inh value was observed for "NC(=O)c1ccc(-c2cc3ncnc(SCC(=O)O)c3s2)cc1" ?
A) 0

Q) Record request: %Inh value, item Cc1ccc2c(-c3ccnc(Nc4ccc(C(F)(F)F)cc4)n3)cnn2n1 [GW819776]
A) 12

Q) Using the record for "CN(c1cccc(CNc2nc(Nc3ccc4c(c3)CC(=O)N4)ncc2C(F)(F)F)c1)S(C)(=O)=O" , report its %Inh.
A) 2

Q) What value of %Inh has been reported for the following molecule? "C[C@@H]1CNc2c(sc3ccc4nc(-c5ccncc5)ccc4c23)C(=O)N1"
A) 6

Q) Entry "O=C(NOCC1CC1)c1cc(Br)c(F)c(F)c1Nc1ccc(I)cc1Cl" : reported %Inh = ?
A) 0

Q) Consider the molecule shown here: CNC(=O)c1ccccc1Nc1nc(Nc2cccc(CS(C)(=O)=O)c2)ncc1C.O=CO [GSK1520489] What is its recorded %Inh?
A) 0

Q) I am curious: what %Inh value has been reported for COc1cc2ncn(-c3cc(OCC4CCCCC4)c(C(N)=O)s3)c2cc1OC [GSK204559] ?
A) 0

Q) Sample CN1CCN(CCCNc2nccc(-c3c(-c4ccc(F)cc4)nn4cc(C(N)=O)ccc34)n2)CC1 [GW622475] — what was its %Inh?
A) 20

Q) %Inh lookup needed for c1ccc(Oc2ccc(Nc3ccnc4ccc(-c5ccccn5)cc34)cc2)cc1 [GW407034] , thanks.
A) 0

Q) GET /values?readout=%Inh&item= CC(C(=O)NC1CCN(c2ccnc(Nc3ccc(F)cc3)n2)C1)c1ccc(Cl)cc1 (centres unmarked) [GSK1379713]
A) 0

Q) Look up %Inh: Cl.Cl.NC[C@H](CC1CCCCC1)NC(=O)c1ccc(-c2ccnc3[nH]ccc23)s1 [GSK1581428]
A) 0

Q) What value of measured %Inh is listed for Nc1nccc(-c2ccc3c(N)n[nH]c3c2)n1 [GSK1034945] ?
A) 0

Q) What value of measured %Inh is listed for COc1cccc(OC)c1C(=O)Nc1cccc(-c2nn3ccccc3c2-c2ccnc(Nc3cccc(F)c3)n2)c1 [GSK361065] ?
A) 0

Q) Dear colleague, I am looking for the recorded %Inh of the following molecule: "Cn1ccc2ncnc(Oc3ccc(NC(=O)Nc4cnn(C(C)(C)C)c4)c(Cl)c3)c21"
A) 5

Q) Could you share which %Inh value was measured for "O=C(Nc1cccc(Oc2ccc3nccn3n2)c1)Nc1cccc(C(F)(F)F)c1" ?
A) 0

Q) # query: %Inh of entry "Cn1ccc2ncnc(Oc3ccc(NC(=O)Nc4cccc(C(F)(F)F)c4)c(Cl)c3)c21"
A) 0

Q) Quick one: %Inh for COC(=O)c1cccc(NC(=O)NC2CCN(c3ccnc(Nc4cc(OC)c(OC)c(OC)c4)n3)C2)c1 (centres unmarked) [GSK1379767] ?
A) 24

Q) Give its %Inh value. Item: C[C@@H](Oc1cc(-n2cnc3cc(-c4cnn(C)c4)ccc32)sc1C(N)=O)c1ccccc1Cl [GSK580432]
A) 0

Q) What does the data say about its %Inh? Entry: Cc1cccc(-c2nc(Nc3ccncc3)c3sccc3n2)n1 [GW869641]
A) 0

Q) // query %Inh value for entry "CN(c1ccccc1CNc1nc(Nc2ccc3c(c2)CC(=O)N3)ncc1C(F)(F)F)S(C)(=O)=O"
A) 49

Q) Any idea what its %Inh is? The molecule is Cc1nnc(-c2ccc3occ(-c4ccc(S(C)=O)cc4)c3n2)o1 (centres unmarked)
A) 2

Q) What value of %Inh has been reported for the following molecule? CCNCC(Cc1ccccc1)NC(=O)c1cc(Br)c(-c2ccnc3[nH]ccc23)s1.Cl.Cl (centres unmarked) [GSK1383280]
A) 15

Q) // lookup %Inh for CCCC(=O)Nc1n[nH]c2ncccc12 [SB-601436]
A) 0

Hey, just so you know, these numbers are from paper PMC5540273.
